# Target desc: Recombinant human cathepsin S (CatS) (Homo sapiens, UniProt P25774)
# Sequence (P25774 115-331): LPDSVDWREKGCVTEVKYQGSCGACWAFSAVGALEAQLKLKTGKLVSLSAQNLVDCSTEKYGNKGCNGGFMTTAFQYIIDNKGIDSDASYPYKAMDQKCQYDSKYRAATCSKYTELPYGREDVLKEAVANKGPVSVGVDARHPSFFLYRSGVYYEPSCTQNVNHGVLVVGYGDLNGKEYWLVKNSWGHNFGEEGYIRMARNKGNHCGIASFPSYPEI
# Assay protocol: Recombinant human cathepsin S (CatS) inhibition assay, fluorogenic substrate Z-Valine-Valine-Arginine-AMC;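 note: Baculovirus-expressed CatS in pH 5.0 sodium acetate buffer with DTT and NaCl, fluorescence read each minute over 20 min, inhibition derived from rate slope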
# strict inequality: IC50 < 1000 nM yields MET, everything else yields NOT MET

Query string: Does the reported IC50 of the following molecule sit strictly below 1000 nM? Clc1ccc(CNCc2ccc(C#Cc3cc(-c4nn(CCCN5CCOCC5)c5c4CNCC5)ccc3Cl)cc2)cc1 [Example 166]
Result string: NOT MET

Query string: Another: CS(=O)(=O)N1CCc2c(c(-c3ccc(Cl)c(C#Cc4cccc5c4CNCC5)c3)nn2CCCN2CCOCC2)C1 [Example 366]
Result string: MET

Query string: Another: CN(Cc1ccccc1)Cc1cccc(CCc2cc(-c3nn(CCCN4CCOCC4)c4c3CN(S(C)(=O)=O)CC4)ccc2Cl)c1 [Example 530]
Result string: NOT MET

Query string: Another: NC(=O)N1CCc2c(c(-c3ccc(Cl)c(C#Cc4ccc(CNCc5ccc(Cl)cc5)cc4)c3)nn2CCCN2CCC(C(F)(F)F)CC2)C1 [Example 455]
Result string: MET

Query string: Another: CC(C)(C)OC(=O)NCc1ccc(C#Cc2cc(-c3nn(CCCN4CCOCC4)c4c3CN(S(C)(=O)=O)CC4)ccc2Cl)cc1 [Example 40]
Result string: MET

Query string: Another: CS(=O)(=O)N1CCc2c(c(-c3ccc(Cl)c(/C=C\c4ccccc4)c3)nn2CCCN2CCOCC2)C1 [Example 67]
Result string: NOT MET

Query string: Another: CS(=O)(=O)N1CCc2c(c(-c3ccc(Cl)c(C#CCCc4ccccc4)c3)nn2CCCN2CCOCC2)C1 [Example 42]
Result string: NOT MET

Query string: Another: C[C@H]1COCCN1CCCn1nc(-c2ccc(Cl)c(C#Cc3ccc(CNCc4ccc(Cl)cc4)cc3)c2)c2c1CCN(C(=O)C(N)=O)C2 [Example 158]
Result string: MET

Query string: Another: NC(=O)N1CCc2c(c(-c3ccc(Cl)c(C#Cc4ccc(COCc5cccnc5)cc4)c3)nn2CCCN2CCSCC2)C1 [Example 161]
Result string: MET

Query string: Another: CS(=O)(=O)N1CCc2c(c(-c3ccc(Cl)c(CCCN)c3)nn2CCCN2CCOCC2)C1 [Example 304]
Result string: NOT MET

Query string: Another: CS(=O)(=O)N1CCc2c(c(-c3ccc(Cl)c(C#Cc4ccc5c(c4)CNCC5)c3)nn2CC(O)CN2CCCCC2)C1 (centres unmarked) [Example 134]
Result string: MET

Query string: Another: CS(=O)(=O)N1CCc2c(c(-c3ccc(Cl)c(CCCNC4CCCC4)c3)nn2CCCN2CCC(N3CCCC3=O)CC2)C1 [Example 108]
Result string: MET

Query string: Another: CS(=O)(=O)N1CCc2c(c(-c3ccc(Cl)c(C#CCO)c3)nn2CCCN2CCC(N3CCCC3=O)CC2)C1 [Example 310]
Result string: NOT MET

Query string: Another: NC(=O)C(=O)N1CCc2c(c(-c3ccc(Cl)c(C#Cc4ccc(CNCc5ccc(Cl)cc5)cc4)c3)nn2CCCN2CCSCC2)C1 [Example 414]
Result string: MET

###

# Target desc: Recombinant human cathepsin S (CatS) (Homo sapiens)
# Assay protocol: Recombinant human cathepsin S (CatS) inhibition assay, fluorogenic substrate Z-Valine-Valine-Arginine-AMC
# strict inequality: IC50 < 300 nM yields fulfilled, everything else yields not fulfilled

Query string: Does the reported IC50 of the following molecule sit strictly below 300 nM? `CS(=O)(=O)N1CCc2c(c(-c3ccc(Cl)c(C#Cc4ccc(CNCc5ccc(Cl)cc5)cc4)c3)nn2CCCN2CCC(NC(=O)CO)CC2)C1`
Result string: fulfilled

Query string: Another: `CS(=O)(=O)N1CCc2c(c(-c3ccc(Cl)c(CCCNS(=O)(=O)c4cccc([N+](=O)[O-])c4)c3)nn2CCCN2CCC(N3CCCC3=O)CC2)C1`
Result string: not fulfilled

Query string: Another: `COC(=O)[C@H](NCc1ccc(C#Cc2cc(-c3nn(CCCN4CCOCC4)c4c3CN(S(C)(=O)=O)CC4)ccc2Cl)cc1)c1ccccc1`
Result string: fulfilled

Query string: Another: CS(=O)(=O)N1CCc2c(c(-c3ccc(C(F)(F)F)c(C#Cc4ccc(Cl)cc4)c3)nn2CC(O)CN2CCOCC2)C1 (stereo not drawn)
Result string: fulfilled

Query string: Another: `NC(=O)N1CCc2c(c(-c3ccc(Cl)c(C#Cc4ccc(Cl)c(CNCc5ccccc5)c4)c3)nn2CCCN2CCSCC2)C1`
Result string: fulfilled

Query string: Another: `CS(=O)(=O)N1CCc2c(c(-c3ccc(Cl)c(C#CCN4CCS(=O)(=O)CC4)c3)nn2CCCN2CCOCC2)C1`
Result string: not fulfilled
